- System: S. aureus UBMS 88-4 (Sensitive)
- ASSAY_SUMMARY: MIC, agar dilution
- Type: cell-based
- CONDITION_PARAMETERS: S. aureus UBMS 88-4 (Sensitive)
# MIC per entry

CN(C)c1cc(NC(=O)c2cccs2)c(O)c2c1CC1CC3C(N(C)C)C(O)=C(C(N)=O)C(=O)C3(O)C(O)=C1C2=O (stereo not drawn): 8 mg/L
CCN(CC)c1cc(NC=O)c(O)c2c1C[C@H]1C[C@H]3[C@H](N(C)C)C(O)=C(C(N)=O)C(=O)[C@@]3(O)C(O)=C1C2=O.O=S(=O)(O)O.O=S(=O)(O)O: 0.12 mg/L
CCN(CC)c1cc(NC(C)=O)c(O)c2c1CC1CC3C(N(C)C)C(O)=C(C(N)=O)C(=O)C3(O)C(O)=C1C2=O (stereo not drawn): 0.25 mg/L

[ask] Give me measured MIC, please, for this compound: CN(C)CC(=O)Nc1cc(N(C)C)c2c(c1O)C(=O)C1=C(O)C3(O)C(=O)C(C(N)=O)=C(O)C(N(C)C)C3CC1C2.O=S(=O)(O)O (stereo not drawn)
[reply] 0.06 mg/L

[ask] Give me measured MIC, please, for this compound: CN(C)c1cc(NC(=O)c2ccco2)c(O)c2c1CC1CC3C(N(C)C)C(O)=C(C(N)=O)C(=O)C3(O)C(O)=C1C2=O (stereo not drawn)
[reply] 4 mg/L

###

- Test system: E. coli ATCC 25922
- ASSAY_SUMMARY: MIC, agar dilution
- Assay type: cell-based
- CONDITION_PARAMETERS: E. coli ATCC 25922; Table IA; unit assumed
MEASURE_NAME: Antibacterial activity (MIC) (µg/mL)
Number in µg/mL, nothing else.

Please review the entries below; each comes with its answer.
CN(C)CC(=O)Nc1cc(N(C)C)c2c(c1O)C(=O)C1=C(O)C3(O)C(=O)C(C(N)=O)=C(O)C(N(C)C)C3CC1C2.O=S(=O)(O)O.O=S(=O)(O)O (centres unmarked): 0.25
CCCCCNCC(=O)Nc1cc(N(C)C)c2c(c1O)C(=O)C1=C(O)C3(O)C(=O)C(C(N)=O)=C(O)C(N(C)C)C3CC1C2.Cl.Cl (centres unmarked): 0.5
CN(C)c1cc(NC(=O)CNC2CCC2)c(O)c2c1CC1CC3C(N(C)C)C(O)=C(C(N)=O)C(=O)C3(O)C(O)=C1C2=O (centres unmarked): 0.25
CCCCN(C)CC(=O)Nc1cc(N(C)C)c2c(c1O)C(=O)C1=C(O)C3(O)C(=O)C(C(N)=O)=C(O)C(N(C)C)C3CC1C2.Cl.Cl (centres unmarked): 1
CCCNCC(=O)Nc1cc(N(C)C)c2c(c1O)C(=O)C1=C(O)C3(O)C(=O)C(C(N)=O)=C(O)C(N(C)C)C3CC1C2.Cl.Cl (centres unmarked): 0.25

[ask] Give me measured Antibacterial activity (MIC), please, for this molecule: CN(C)CC(=O)Nc1cc(N(C)C)c2c(c1O)C(=O)C1=C(O)C3(O)C(=O)C(C(N)=O)=C(O)C(N(C)C)C3CC1C2 (centres unmarked)
[reply] 0.12

[ask] Give me measured Antibacterial activity (MIC), please, for this molecule: CN(C)CC(=O)Nc1cc(N(C)C)c2c(c1O)C(=O)C1=C(O)[C@]3(O)C(=O)C(C(=O)NCN4CCCCC4)=C(O)[C@@H](N(C)C)C3CC1C2 (some centres unmarked)
[reply] 0.25

[ask] Give me measured Antibacterial activity (MIC), please, for this molecule: CN(C)c1cc(NC(=O)CN2CCCCC2)c(O)c2c1CC1CC3C(N(C)C)C(O)=C(C(N)=O)C(=O)C3(O)C(O)=C1C2=O.Cl.Cl (centres unmarked)
[reply] 0.25

The measured values listed here are drawn from patent USRE40086E1.
